Value source: patent US7803930B2

Tested on: rabbit apolipoprotein B mRNA
Experimental Protocol: Inhibition of rabbit apolipoprotein B mRNA levels in primary rabbit hepatocytes, real-time PCR
Type: cell-based
Condition Context: 300 nM, averages from two experiments
Excerpt: Primary rabbit hepatocytes were purchased from Invitro Technologies (Gaithersburg, Md.) and maintained in Dulbecco's modified Eagle's medium (Gibco). When purchased, the cells had been seeded into 96-well plates for use in RT-PCR analysis and were confluent. […]
In the oligonucleotide strings, read from the 5' end, every base follows the letter of its sugar. An asterisk marks phosphorothioate; unmarked linkages are phosphodiester. Other units and linkages are bracketed, terminal groups are in braces. A string of capitals states the bases alone. e = 2'-O-(2-methoxyethyl) (MOE); [5mC] = 5-methylcytosine; d = 2'-deoxy (DNA)
This listing pairs substances with measured Percent Inhibition of rabbit apolipoprotein B mRNA levels.
Answer with a number only, understood to be in %.

[[record]]
substance = "233166 (antisense eG*eG*eA*eT*e[5mC]*dA*d[5mC]*dA*dT*dG*dA*d[5mC]*dT*dG*dA*eA*eT*eG*e[5mC]*eT) [compound 233166]"
measurement_unit = "%"
result_value = 73

[[record]]
substance = "233175 (antisense eG*eA*e[5mC]*e[5mC]*eT*dT*dG*dA*dG*dT*dA*dG*dA*dT*dT*e[5mC]*e[5mC]*eT*eG*eG) [compound 233175]"
measurement_unit = "%"
result_value = 93

[[record]]
substance = "233160 (antisense eA*eT*eT*eG*eG*dA*dA*dT*dA*dA*dT*dG*dT*dA*dT*e[5mC]*e[5mC]*eA*eG*eG) [compound 233160]"
measurement_unit = "%"
result_value = 80


Entry under review: 233172 (antisense eA*eT*eG*eG*eA*dA*dG*dA*d[5mC]*dT*dG*dG*d[5mC]*dA*dG*e[5mC]*eT*e[5mC]*eT*eA) [compound 233172] . Reported Percent Inhibition of rabbit apolipoprotein B mRNA levels? 84

Entry under review: 233183 (antisense e[5mC]*eA*eG*eT*eG*dT*dA*dA*dT*dG*dA*dT*d[5mC]*dG*dT*eT*eG*eA*eT*eT) [compound 233183] . Reported Percent Inhibition of rabbit apolipoprotein B mRNA levels? 80

====

Tested on: human apolipoprotein B mRNA
Experimental Protocol: Apolipoprotein B mRNA in primary human hepatocytes, real-time PCR
Format: cell-based
Condition Context: 50 nM, 24 hours (Table 37)
In the oligonucleotide strings, read from the 5' end, every base follows the letter of its sugar. An asterisk marks phosphorothioate; unmarked linkages are phosphodiester. Other units and linkages are bracketed, terminal groups are in braces. A string of capitals states the bases alone. e = 2'-O-(2-methoxyethyl) (MOE); [5mC] = 5-methylcytosine; d = 2'-deoxy (DNA)
Recorded Endpoint: % Inhibition of apolipoprotein B mRNA expression (%)
Answer with a number only, understood to be in %.

[[record]]
substance = "GCCTCAGTCTGCTTCGCGCC (2'-MOE gapmer, further chemistry not given here) [ISIS 271009]"
result_value = 52


Entry under review: ISIS 281625: SEQ ID NO: 224, 2′-MOE gapmer targeted to human apolipoprotein B (antisense eA*eG*eG*eT*eT*dA*d[5mC]*d[5mC]*dA*dG*d[5mC]*d[5mC]*dA*d[5mC]*dA*eT*eG*e[5mC]*eA*eG) . Reported % Inhibition of apolipoprotein B mRNA expression? 49

Entry under review: ISIS 301027: SEQ ID NO: 262, 2′-MOE gapmer targeted to human apolipoprotein B (antisense eG*e[5mC]*eT*e[5mC]*eA*d[5mC]*dT*dG*dT*dA*dT*dG*dG*dT*dT*eT*eT*eA*eT*e[5mC]) . Reported % Inhibition of apolipoprotein B mRNA expression? 50

Entry under review: CTCTTACTGTGCTGTGGACA (antisense e[5mC]*eT*e[5mC]*eT*eT*dA*d[5mC]*dT*dG*dT*dG*d[5mC]*dT*dG*dT*eG*eG*eA*e[5mC]*eA) [ISIS 113529, reference compound] . Reported % Inhibition of apolipoprotein B mRNA expression? 0

Entry under review: ISIS 13650: SEQ ID NO: 806, control oligonucleotide (antisense TCCCGCCTGTGACATGCATT; listed as DNA, chemistry not given here) [reference compound] . Reported % Inhibition of apolipoprotein B mRNA expression? 38
